# testedTarget: human CTLA-4 (human) (UniProt P16410)
# Sequence (P16410 36-223): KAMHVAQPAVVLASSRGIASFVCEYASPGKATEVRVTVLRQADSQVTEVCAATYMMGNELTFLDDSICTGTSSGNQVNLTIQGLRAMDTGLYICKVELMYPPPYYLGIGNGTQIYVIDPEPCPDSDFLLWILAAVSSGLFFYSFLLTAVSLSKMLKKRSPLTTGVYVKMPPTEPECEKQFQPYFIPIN
# assaySummary: flow cytometry, CHO cells expressing huCTLA4
Entries and their measured MFI at 33.3 nM follow.
Quick reminder: number only, in MFI, skip the unit.

Recorded results for 4 binders are shown here.
variant CD80 IgV-Fc Q33L/E35D/N48K/L85Q/L97Q (Fc fusion) VIHVTKEVKEVATLSCGHNVSVEELAQTRIYWLKDKKMVLTMMSGDMKIWPEYKNRTIFDITNNLSIVILALRPSDEGTYECVVQKYEKDAFKREHQAEVTLSVKAD = 1180
variant CD80 IgV-Fc H18Y/E35D/M47L (Fc fusion) VIHVTKEVKEVATLSCGYNVSVEELAQTRIYWQKDKKMVLTMMSGDLNIWPEYKNRTIFDITNNLSIVILALRPSDEGTYECVVLKYEKDAFKREHLAEVTLSVKAD = 284000
variant CD80 IgV-Fc V22A/R29H/E35D/D46E/M47I (Fc fusion) VIHVTKEVKEVATLSCGHNVSAEELAQTHIYWQKDKKMVLTMMSGEINIWPEYKNRTIFDITNNLSIVILALRPSDEGTYECVVLKYEKDAFKREHLAEVTLSVKAD = 77400
variant CD80 IgV-Fc H18Y/E35D/N48K (Fc fusion) VIHVTKEVKEVATLSCGYNVSVEELAQTRIYWQKDKKMVLTMMSGDMKIWPEYKNRTIFDITNNLSIVILALRPSDEGTYECVVLKYEKDAFKREHLAEVTLSVKAD = 261000

The binder identified as variant CD80 IgV-Fc A26E/Q33R/E35D/M47L/L85Q (Fc fusion) VIHVTKEVKEVATLSCGHNVSVEELEQTRIYWRKDKKMVLTMMSGDLNIWPEYKNRTIFDITNNLSIVILALRPSDEGTYECVVQKYEKDAFKREHLAEVTLSVKAD registered its MFI at 33.3 nM at 1280
